- Protocol description: Drug uptake in brain of Sprague-Dawley rat at 5 mg/kg, iv measured at 1 hr by LC-MS/MS analysis
- Type: ADME, organism-based
- Condition info: read-out: Drug uptake
Measurement label: concentration at 1 h (ng/mL)

smiles_record=C[C@@H](Oc1cncc(-c2cnc(N)nc2)c1)c1c(Cl)ccc(F)c1Cl recorded_measurement=2730

* * *

- System name: Phosphatidylinositol 3,4,5-trisphosphate 5-phosphatase 2 (Homo sapiens) (UniProt O15357)
- Sequence (whole entry): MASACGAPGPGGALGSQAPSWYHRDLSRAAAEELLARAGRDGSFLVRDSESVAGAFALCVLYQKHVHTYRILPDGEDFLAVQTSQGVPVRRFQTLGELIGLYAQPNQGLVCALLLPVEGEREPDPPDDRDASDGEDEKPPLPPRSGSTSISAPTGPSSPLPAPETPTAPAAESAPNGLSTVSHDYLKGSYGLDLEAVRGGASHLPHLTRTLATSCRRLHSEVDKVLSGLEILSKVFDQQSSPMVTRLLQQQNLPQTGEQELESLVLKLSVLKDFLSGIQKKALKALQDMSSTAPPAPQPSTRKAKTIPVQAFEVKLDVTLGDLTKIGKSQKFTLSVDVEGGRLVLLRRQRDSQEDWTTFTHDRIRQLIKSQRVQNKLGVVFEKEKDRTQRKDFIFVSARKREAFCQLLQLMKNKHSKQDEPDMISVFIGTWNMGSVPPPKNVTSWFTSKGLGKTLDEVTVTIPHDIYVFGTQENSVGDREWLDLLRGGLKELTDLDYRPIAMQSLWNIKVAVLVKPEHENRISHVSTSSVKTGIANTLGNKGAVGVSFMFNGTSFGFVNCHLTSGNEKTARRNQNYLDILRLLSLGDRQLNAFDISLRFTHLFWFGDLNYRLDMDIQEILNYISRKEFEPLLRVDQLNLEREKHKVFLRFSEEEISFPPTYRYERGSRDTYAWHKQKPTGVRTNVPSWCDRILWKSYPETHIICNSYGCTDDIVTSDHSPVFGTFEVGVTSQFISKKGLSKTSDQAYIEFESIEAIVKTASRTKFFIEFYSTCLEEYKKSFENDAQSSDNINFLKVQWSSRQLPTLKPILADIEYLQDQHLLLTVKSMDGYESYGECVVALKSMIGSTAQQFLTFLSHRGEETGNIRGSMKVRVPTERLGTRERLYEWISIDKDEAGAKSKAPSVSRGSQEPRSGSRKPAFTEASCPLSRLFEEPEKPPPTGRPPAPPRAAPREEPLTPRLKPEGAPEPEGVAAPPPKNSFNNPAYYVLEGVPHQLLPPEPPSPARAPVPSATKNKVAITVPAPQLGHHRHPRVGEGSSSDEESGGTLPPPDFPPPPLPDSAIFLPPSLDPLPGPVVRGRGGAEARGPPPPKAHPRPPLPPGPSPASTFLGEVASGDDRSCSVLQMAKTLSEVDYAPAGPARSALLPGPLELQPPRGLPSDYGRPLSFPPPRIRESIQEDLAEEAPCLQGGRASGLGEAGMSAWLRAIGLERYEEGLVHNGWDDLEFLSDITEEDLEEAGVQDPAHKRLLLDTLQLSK
- Protocol description: Inhibition of SHIP2 (unknown origin) assessed as remaining enzyme activity at 30 uM using PtdIns(3,4,5)P3 as substrate preincubated for 20 mins followed by substrate addition measured for 50 mins by malachite green staining based assay relative to control
Under this convention, label 1 denotes Activity strictly below 70% and label 0 denotes Activity at or above 70%.

smiles_record=N#Cc1ccc(-c2cc(OCc3ccc(Cl)cc3Cl)ccn2)s1 class_name="label 0"
smiles_record=Clc1ccc(COc2cncc(C3=CCNCC3)c2)c(Cl)c1 class_name="label 1"
smiles_record=FC(F)(F)c1ccccc1COc1cncc(-c2cnn(C3CCNCC3)c2)c1 class_name="label 0"
smiles_record=OCc1ccc(-c2cncc(OCc3ccc(Cl)cc3Cl)c2)s1 class_name="label 0"
smiles_record=N#Cc1ccc(-c2cncc(OCc3ccc(Cl)cc3Cl)c2)s1 class_name="label 1"
smiles_record=O=C(NCc1c(F)cccc1F)c1sccc1OCc1ccc(Cl)cc1Cl class_name="label 1"
smiles_record=C[C@@H](Oc1cncc(-c2ccc(C#N)s2)c1)c1c(Cl)ccc(F)c1Cl class_name="label 1"
smiles_record=O=Cc1ccc(-c2cncc(OCc3ccc(Cl)cc3Cl)c2)s1 class_name="label 1"
smiles_record=C[C@H](Oc1cncc(-c2ccc(N)nc2)c1)c1c(Cl)ccc(F)c1Cl class_name="label 1"

Recorded values, source ChEMBL document CHEMBL4270607.
